Target: wild-type ALK kinase (rALK) (Homo sapiens (Human))
Sequence (Q9UM73 19-1620): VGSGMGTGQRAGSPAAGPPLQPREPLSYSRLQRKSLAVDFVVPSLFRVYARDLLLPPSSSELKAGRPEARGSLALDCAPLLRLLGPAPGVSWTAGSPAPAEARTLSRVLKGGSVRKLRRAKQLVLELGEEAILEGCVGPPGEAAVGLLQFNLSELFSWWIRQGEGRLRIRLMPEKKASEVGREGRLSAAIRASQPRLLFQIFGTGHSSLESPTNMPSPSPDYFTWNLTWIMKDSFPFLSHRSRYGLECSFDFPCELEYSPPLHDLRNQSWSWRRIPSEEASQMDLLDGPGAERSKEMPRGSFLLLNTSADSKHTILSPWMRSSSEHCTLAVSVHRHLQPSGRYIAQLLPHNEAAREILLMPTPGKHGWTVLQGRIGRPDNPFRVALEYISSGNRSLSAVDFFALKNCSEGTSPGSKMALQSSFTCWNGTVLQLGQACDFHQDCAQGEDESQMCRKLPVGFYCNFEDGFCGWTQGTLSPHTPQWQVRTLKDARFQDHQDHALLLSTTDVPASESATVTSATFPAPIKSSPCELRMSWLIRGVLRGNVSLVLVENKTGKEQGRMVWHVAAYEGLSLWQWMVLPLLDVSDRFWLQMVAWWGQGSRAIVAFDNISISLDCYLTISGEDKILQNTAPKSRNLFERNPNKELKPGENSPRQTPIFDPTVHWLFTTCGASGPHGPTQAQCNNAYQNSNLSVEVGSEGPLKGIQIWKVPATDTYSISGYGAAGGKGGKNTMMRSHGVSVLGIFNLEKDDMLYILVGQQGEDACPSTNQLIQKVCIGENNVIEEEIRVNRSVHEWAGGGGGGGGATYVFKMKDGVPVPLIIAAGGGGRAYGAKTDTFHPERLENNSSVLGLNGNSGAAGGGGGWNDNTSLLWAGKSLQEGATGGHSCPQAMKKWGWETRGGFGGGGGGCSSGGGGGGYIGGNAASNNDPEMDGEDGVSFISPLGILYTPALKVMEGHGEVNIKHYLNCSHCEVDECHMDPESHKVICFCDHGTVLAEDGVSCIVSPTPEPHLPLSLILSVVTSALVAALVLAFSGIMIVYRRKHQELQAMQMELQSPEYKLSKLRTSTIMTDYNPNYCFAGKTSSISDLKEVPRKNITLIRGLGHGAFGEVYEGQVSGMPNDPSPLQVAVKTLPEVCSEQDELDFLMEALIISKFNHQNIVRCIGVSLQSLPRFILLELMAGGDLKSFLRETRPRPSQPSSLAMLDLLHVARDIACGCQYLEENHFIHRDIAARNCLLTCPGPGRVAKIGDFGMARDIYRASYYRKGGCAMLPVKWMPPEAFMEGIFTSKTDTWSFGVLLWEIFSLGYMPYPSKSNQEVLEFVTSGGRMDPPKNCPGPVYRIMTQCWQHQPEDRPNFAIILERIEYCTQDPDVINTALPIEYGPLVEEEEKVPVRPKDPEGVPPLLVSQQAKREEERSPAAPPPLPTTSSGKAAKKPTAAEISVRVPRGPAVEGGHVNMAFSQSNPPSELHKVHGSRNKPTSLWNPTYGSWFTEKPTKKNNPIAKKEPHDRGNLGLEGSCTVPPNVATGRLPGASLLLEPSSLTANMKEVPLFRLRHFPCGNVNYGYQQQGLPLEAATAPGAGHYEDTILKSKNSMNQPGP
Test: ELISA-based in vitro kinase assay, wild-type ALK
Conditions: recombinant ALK, 0.3 mM ATP; read-out: ELISA ALK WT IC50
Method: Recombinant 3C protease was used to remove the GST tag. […] Phosphorylated peptide was detected using 100 μL/well of a mouse monoclonal anti-phosphotyrosine antibody (clone 4G10 UpstateBiotech Ltd) diluted 1:2000 in PBS+4% BSA. […] Finally, the absorbance was read at 450 nm using an ELISA plate reader (Bio-Rad).
# key: entry, value: IC50
Please reply with the bare figure in µM and do not write the unit itself.

Answered cases to consult:
CN1CCN(c2ccc(-c3ccc4[nH]c5nccc(-c6ccc(N7CCN(C)CC7)cc6)c5c4c3)cc2)CC1 [Example 20]: 10
Cc1ccc(Cn2cc(-c3ccnc4[nH]c5ccc(-c6ccc(N7CCN(C)CC7)cc6)cc5c34)nn2)cc1 [Example 47]: 6.8
COc1ccc(Sc2ccnc3[nH]c4ccc(-c5ccc(N6CCN(C)CC6)cc5)cc4c23)cc1 [Example 46]: 5.7
COc1ccccc1C#Cc1ccnc2c1c1cc(-c3ccc(N4CCN(C)CC4)cc3)ccc1n2C [Example 45]: 3.8

As a next step, examine the molecule that follows.
Give the measured IC50 for C#Cc1ccnc2[nH]c3ccc(-c4ccc(N5CCN(C)CC5)cc4)cc3c12 [Example 44] 29

###

System: BaF3 cells transformed with the oncogenic fusion protein NPM/ALK
Assay: cells
Conditions: read-out: BaF3 NPM/ALK WT IC50
MEASURED PROPERTY: IC50 (µM)
Please reply with the bare figure in µM and do not write the unit itself.

Answered cases to consult:
COc1ccccc1C#Cc1ccnc2c1c1cc(-c3ccc(N4CCN(C)CC4)cc3)ccc1n2C: 1.1
C#Cc1ccnc2[nH]c3ccc(-c4ccc(N5CCN(C)CC5)cc4)cc3c12: 0.17

As a next step, examine the compound that follows.
Determine reported IC50 for "CN1CCN(c2ccc(-c3ccc4[nH]c5nccc(-c6ccc(N7CCN(C)CC7)cc6)c5c4c3)cc2)CC1" ; test system: BaF3 cells transformed with the oncogenic fusion protein NPM/ALK. 0.52
